- STUDY SYSTEM: Recombinant human IL-2 (human, UniProt P60568 21-153)
- TEST: cell-based or functional assay
QUANTITY KIND: Ratio (huRαβγ/Rβγ) of fold EC50 shifts, proliferation

INSERT INTO assay_data (binder, experimental_result) VALUES
  ('XPA.92.019 (antibody, V domains shown, Tested as purified full-length human IgG; also called mAb19) VH: EVQLVESGGGLVQPGRSLRLSCAASGFTFSYYGMHWVRQAPGKGLEWVADISNDGSNKYYADSVKGRFTISRDNSKTTLYLQMNSLRPEDTAVYYCATPYYDSSGLDYWGQGTLVTVSS VL: SYELTQPPSVSVSPGQTARITCSGDALPKRFAYWYQQKAGQAPVLVIYEDNKRPSGIPETLSGSSSGTTATLTISGAQEEDEADYYCYSTDNTGGLWVFGGGTKLTVLG', 6),
  ('XPA.92.099 (antibody, V domains shown, Tested as purified full-length human IgG; also called mAb99; clone 99) VH: QVQLVESGGGLVKPGRSLRLSCAASGFTFNRYAMSWVRQAPGKGLEWVAMISFDGGNQYYTDSVSGRFTISRDNSKTTLFLQMDSLRTEDTAVYYCVRSPAGDWVAYFDYWGQGTLVTVSS VL: DIQMTQSPSSLSASIGDRVTIPCQASEDISNHLSWYQQKPGKAPKPLIFDASDLETGVPSRFSGSGSGTDFALTISSLRPDDFATYYCHQYHDYPSYTFGHGTKLEIKR', 9),
  ('XPA.92.042 (antibody, V domains shown, Tested as purified full-length human IgG) VH: EVQLVQSGTEVKKAGDSLKISCKGSGYNFDTYWIGWVRQMPGRGLEWMGTIYPADSDTRYSPSFQGQVTMSADKSISTAYLQWGSLRASDTAMYYCARFSSSAYDIWGQGTMVTVSS VL: SYELTQPPSVSVSPGQTARITCSGDALPRKFAYWYQQKSGQAPVLVIYQDTKRPSGIPERFSGSSSGTTVTLTISDVQAEDDADYYCQSADRSDSYVFGAGTKLTVLG', 10),
  ('XPA.92.041 (antibody, V domains shown, Tested as purified full-length human IgG) VH: EVQLVQSGAEVKKPGESLKISCKGSGYNFDTYWIGWVRQMPGRGLEWMGTIYPADSDTRYSPSFQGQVTTSADKSISTAYLQWGSLRASDTAMYYCARFSSSAYDIWGQGTMVTVSS VL: SYELTQPPSVSVSPGQTARITCSGDALPRQFAYWYQQKPGQAPVLVIYKDTERPSGIPERFSGSSSGTTVTLTISGVQAEDEADYYCQSADSSGTYHVFGGGTQLTVLG', 9);

Values from patent US20180094053A1
